For each entry below, report its PBM E-score value.
ASSAY SYSTEM: Cst6 (UniProt P40535)
Sequence (P40535 whole entry): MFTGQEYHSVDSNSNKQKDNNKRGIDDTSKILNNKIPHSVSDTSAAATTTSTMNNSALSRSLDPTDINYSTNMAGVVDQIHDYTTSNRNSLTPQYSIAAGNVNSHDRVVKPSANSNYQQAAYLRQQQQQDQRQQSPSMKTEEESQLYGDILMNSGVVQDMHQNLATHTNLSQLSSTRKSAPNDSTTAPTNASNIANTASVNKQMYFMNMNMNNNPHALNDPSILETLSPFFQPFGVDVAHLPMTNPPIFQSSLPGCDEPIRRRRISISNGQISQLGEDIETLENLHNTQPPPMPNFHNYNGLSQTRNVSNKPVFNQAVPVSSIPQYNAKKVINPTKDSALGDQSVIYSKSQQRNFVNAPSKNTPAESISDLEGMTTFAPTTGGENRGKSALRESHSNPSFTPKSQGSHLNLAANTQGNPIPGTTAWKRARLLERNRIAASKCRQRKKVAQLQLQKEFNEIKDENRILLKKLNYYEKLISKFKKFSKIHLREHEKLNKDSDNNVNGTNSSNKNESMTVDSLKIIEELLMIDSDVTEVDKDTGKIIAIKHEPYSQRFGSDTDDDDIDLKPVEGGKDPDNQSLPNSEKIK
RUN DESCRIPTION: PBM E-score (8-mer binding enrichment) (E-score (-0.5 to 0.5)); higher = stronger / more preferred TF binding
CONDITION DESCRIPTION: protein concentration: 200 nM; construct: GST-DNA-binding domain
In all, about 33,000 sequences were measured (“E-score (-0.5 to 0.5)”: median about -0.016, highest 2% from about 0.31 on). The entries come from a sample that favours the highest values as a whole.
Numbers only.

Consider the reported PBM E-score for these sequences:
| MACROMOLECULE SEQUENCE | ASSAY SYSTEM | PBM E-score |
| --- | --- | --- |
| AAGATGAT | Cst6 (UniProt P40535) | 0.229 |
| CAGATGAG | Cst6 (UniProt P40535) | 0.0374 |

Please state, for each entry, its recorded PBM E-score.
1. AAATAATC
2. GCTATATA

Data returned:
1: 0.178; 2: 0.167

Please state, for each entry, its recorded PBM E-score.
1. CAGATGAC
2. AATATATA
3. AAATACAC
4. GACATCAC
5. GGCGTACC
6. AAATAAAG

Data returned:
1. 0.383
2. 0.239
3. 0.141
4. 0.431
5. -0.19
6. 0.104

Please state, for each entry, its recorded PBM E-score.
1. TATATACA
2. AGACGCAA
3. TGACGCCA
4. CCTTACCA

Data returned:
[0.161, 0.0971, 0.466, -0.119]

Please state, for each entry, its recorded PBM E-score.
1. AATATTGG
2. CGTACGCC

Data returned:
1. 0.0316
2. 0.111

Please state, for each entry, its recorded PBM E-score.
1. AAATAAAA
2. CAATACAA
3. CGGATGAC
4. ATAAGAAT
5. AAATACAA

Data returned:
[0.186, 0.15, 0.321, 0.253, 0.321]

Please state, for each entry, its recorded PBM E-score.
1. AAGATGAC
2. CCGTCGAA
3. GGACGGAA
4. TACATCAA
5. CCTTTTCG
6. CGGATGAA

Data returned:
1. 0.345
2. 0.0203
3. -0.119
4. 0.283
5. 0.021
6. 0.127

Please state, for each entry, its recorded PBM E-score.
1. CGTACGTA
2. AGTACGTC
3. GGAGGCGA
4. AATTGTTG
5. CGTACGTC
6. AAATAAAT
7. CCTTGCAA
8. AAGATGAG

Data returned:
[0.306, 0.205, -0.154, 0.0795, 0.31, 0.371, -0.186, -0.0416]

Please state, for each entry, its recorded PBM E-score.
1. CCACGCAA
2. ACAACCAG

Data returned:
1. 0.043
2. 0.0122
